# Lookup of reported Score_si2 keyed by entry
- System: CHIKV
- Assay type: cell-based, chikungunya virus
Just the number.

Answered examples (3):
Hs_CCNF_3 (sense CACAGATGGCGTCAATGTGAA; chemistry not given here) : 1.09
Hs_COPG_2 (sense CAGGAAAGGGACATTGTAAAT; chemistry not given here) : 2.25
Hs_NCOA1_1 (CAGCGGGAACTGTACAGTCAA; chemistry not given here) : 1.96

Now let's try a different one.
Reported Score_si2 for Hs_GNG13_2 (sense CACGTGATTACAGTCTGTAAA; chemistry not given here) : what is it? 1.42

###

- Tested on: CHIKV
- Assay type: cell-based, chikungunya virus
Score_si4 for assorted substances

s9325 (CTTCAGTGCTGATCAGGTA; chemistry not given here) : 0.41
Hs_ODZ3_2 (CCCAAATTTGATTTAACAGAA; chemistry not given here) : 0.82
s27642 (sense GCATGATGTTCGTCCGCAA; chemistry not given here) : 1.26
s2664 (sense CGTCCATGTTTATCTACAA; chemistry not given here) : 0.12

Look up Score_si4 for this substance: s2529 (sense GCACCCGGTTTATCAGTAA; chemistry not given here) 0.17

Would you mind telling me what Score_si4 value was observed for s50641 (sense ACAACTCTGTGCACAACAA; chemistry not given here) ? 0.17

Field request: Score_si4 | item: s49211 (sense GTTCCTGGGTGTTCACCTA; chemistry not given here) 0.08

Entry s38241 (TCCTTTTCCATGTACCAGA; chemistry not given here) : reported Score_si4 = ? 0.18

Tell me the measured Score_si4 of s28365 (sense AGATCGACAAGAACGAAGA; chemistry not given here) [reference compound] , please. -0.72

Look up Score_si4: Hs_DHX38_2 (CAGCAGTGAATTTGCAAAGAA; chemistry not given here) 1.02

Which Score_si4 is reported for this substance? s9628 (GACCTAAAGAAGGAGATTA; chemistry not given here) 1.13

Data request, read-out Score_si4, for Hs_DLD_2 (CCCACTTATTCAAACAGAATA; chemistry not given here) 0.87

Can you look up the measured Score_si4 of s9337 (GCTCTCCAACAATTACTAT; chemistry not given here) [reference compound] for me? -0.09
